Quick reference for IC50 among some compounds
target: Human recombinant COX-2 (Homo sapiens); assay: biochemical
Sequence (P35354 18-604): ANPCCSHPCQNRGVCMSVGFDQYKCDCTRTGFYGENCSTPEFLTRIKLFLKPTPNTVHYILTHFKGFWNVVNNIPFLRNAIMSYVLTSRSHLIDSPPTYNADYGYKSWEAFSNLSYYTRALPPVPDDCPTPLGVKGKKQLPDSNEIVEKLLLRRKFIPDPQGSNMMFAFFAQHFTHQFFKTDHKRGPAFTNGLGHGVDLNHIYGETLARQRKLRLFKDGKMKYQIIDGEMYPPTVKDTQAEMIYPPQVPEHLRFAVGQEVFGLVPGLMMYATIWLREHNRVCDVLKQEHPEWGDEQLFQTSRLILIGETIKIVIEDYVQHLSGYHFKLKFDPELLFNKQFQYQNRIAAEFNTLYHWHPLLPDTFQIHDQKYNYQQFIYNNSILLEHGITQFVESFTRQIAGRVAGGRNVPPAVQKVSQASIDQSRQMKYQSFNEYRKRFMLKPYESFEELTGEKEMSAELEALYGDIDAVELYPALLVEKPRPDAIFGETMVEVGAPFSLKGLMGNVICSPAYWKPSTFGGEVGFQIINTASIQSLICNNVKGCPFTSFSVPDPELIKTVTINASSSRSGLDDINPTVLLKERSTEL
Test Readout: IC50

1) COc1cccc(-c2cc(-c3ccc(S(C)(=O)=O)cc3)nc3nc4ccccc4n23)c1 :: > 100 µM
2) CS(=O)(=O)c1ccc(-c2cc(-c3cccc(Cl)c3)n3c(n2)nc2ccccc23)cc1 :: 0.24 µM
3) CS(=O)(=O)c1ccc(-c2cc(-c3ccccc3)n3c(n2)nc2ccccc23)cc1 :: 0.05 µM
4) Cc1cccc(-c2cc(-c3ccc(S(C)(=O)=O)cc3)nc3nc4ccccc4n23)c1 :: > 100 µM

###

biological target: Human recombinant COX-2 (Homo sapiens); test: biochemical; conditions: COX-1 vs COX-2
Test Readout: Selectivity Index (SI)

1) CS(=O)(=O)c1ccc(-c2cc(-c3ccccc3)n3c(n2)nc2ccccc23)cc1 [Compound 5a] :: 122
2) COc1ccccc1-c1cc(-c2ccc(S(C)(=O)=O)cc2)nc2nc3ccccc3n12 [Compound 5e] :: 115
3) COc1cc(-c2cc(-c3ccc(S(C)(=O)=O)cc3)nc3nc4ccccc4n23)cc(OC)c1OC [Compound 5i] :: 28.1
4) Cc1ccc(-c2cc(-c3ccc(S(C)(=O)=O)cc3)nc3nc4ccccc4n23)cc1 [Compound 5d] :: 60
5) CS(=O)(=O)c1ccc(-c2cc(-c3cccc(Cl)c3)n3c(n2)nc2ccccc23)cc1 [Compound 5n] :: 43.3
